Tested on: K4 kissing-loop RNA reporter
Assay: apparent KD of K4 kissing-loop reporter; higher = weaker reporter binding
Settings: Eterna round: R107; input ligand: none
property.name: apparent KD of K4 kissing-loop reporter (µM)
Report the figure in µM without appending any unit label.

[in] GET /values?readout=apparent KD of K4 kissing-loop reporter&system=K4 kissing-loop RNA reporter&item= GGUAGCAUGGCGGCCGCCACUAAGAGAGUGAUGUUCUCUUAGUUUUUUGAUAUAUUAUCAAUUCUUAGGACCGGGCCAUGCUACC;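 further: bound reporter read as fluorescence of individual clusters on recovered sequencing chips by microscopy, with normalized cluster intensities fitted with a binding model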
[out] 0.0947

[in] Now the same for GGUAUCUAUACAGAUACCAGUCGUACAGCACCAUUACAGGUUAGUGAUGUUAACCUGUACGACCCUUGGCAGCUGUAUUAUAAUA [#15 K4 Theophylline B Exclusion]
[out] 0.0868

[in] Here is the next sequence: AGGAUCCACCAGUGAUGUUGGAAAUACUCCAAGGAUAUGACGAAAGUCAGAAGGUGGUAGACUGGACAAAGUCCAGUCGGAUCCA [FmnA 28 #SwitchBubble #K4Early]
[out] 0.602

###

System: MS2 coat protein
Assay: apparent KD of MS2 coat protein; designed switch direction (-1 OFF switch, 1 ON switch): 1; higher = weaker reporter binding
Settings: input ligand: FMN 200 uM
Task for the reader: assign each of the following sequences its reported apparent KD of MS2 coat protein.
Write down the numeric answer in µM and omit the unit.

[in] # input sequence: GCGGUACCUAACAUGAGGAUCACCCAUGUUCCGGAAACGGCACAGGAUAUCUGUCCGAAAAGGUCAGAGAAGGGUGAAAUCCGC [Fiskers NG3ss - 93] (Eterna round: R96, puzzle: Same State NG 3) ; wanted: its apparent KD of MS2 coat protein
[out] 0.361

[in] UAAAGCGACGUAGGAUAUCCUCUACAUGCGUAAGGAGAAGGAUGCGCAACAUGAGGAUCACCCAUGUAAAACCAGCACUGCUGG [Isaerte] (Eterna round: R96, puzzle: Same State NG 1) , same question.
[out] 0.0719

[in] Repeat with AAAGAAACAUGAGGAUCACCCAUGUACCGCGGAAUGUGUGCACAGGAUAUGUACAGCUUUUGCUUACAGAAGGGUGCGCCCGUG [Enorso] (Eterna round: R96, puzzle: Same State NG 3)
[out] 0.0208

[in] Do the same for AGUCCAGCGAAAGCUGGACAAAAGCAUGUACAUGAGGAUCACCCAUGUUCAUGUACAAGCUUUUUGCUCGUCUUAAA [Mat - Sensor - JL mod - D95] (Eterna round: R96, puzzle: Sensor for hsa-mir-208a) please
[out] 0.485

[in] Lookup GGAGCCGGUACUGAGGAUAUUCAUAUUAAAACAUGAGGAUCACCCAUGUAGGCCAGAAGGCCUUGGGAGAAGGCAGGCCAGCUCG [Atgexeedri - 4] (Eterna round: R96, puzzle: Same State 2)
[out] 0.0247

[in] Further, for UUGUUUUGAAAUUUACAUGAGGAUCACCCAUGUCGUGAGACAGAGGAUAUACAGGAAUGUAGGUAGUAGAAGGCUGUUUUGUGU [JR_SSNG3_Sub100] (Eterna round: R96, puzzle: Same State NG 3) ?
[out] 0.0495

[in] And for UGGCUCAGACGAGGAUAUAUGUGAUCACAUGAGGAUCACCCAUGUCUCGAGCUUCGGCUCGAGACAUAGAAGGUGUCUGAGCCA [SSNG2/3-C2] (Eterna round: R96, puzzle: Same State NG 2) ?
[out] 0.0148

[in] Next sequence up: CACAUGAGGAUCACCCAUGUGAGGCGGCAAUAAAACCGCGCACAGGAUAUAGCGCUAAGAAAGCGCUAGAAGGGUGAUUAGAAC [Gerelabies] (Eterna round: R96, puzzle: Same State NG 3)
[out] 0.712

[in] Record: UGUUAGUAGUGAGGAUAUACAUACACCUUACAUGAGGAUCACCCAUGUUUUAAUAUUGAUAGUUAGUAGAAGGCACAUGAUUAU [JR_SSNG2_Sub043] (Eterna round: R96, puzzle: Same State NG 2)
[out] 0.0221

[in] Entry to check: UUGAAGAAUUAAGGAUAUCGAGUCAAGAUGUUAAACAUGAGGAUCACCCAUGUGGGUUGCGGUAUCGAGAAGGUAAAUUACAAG [JL SSNG2 1.41] (Eterna round: R96, puzzle: Same State NG 2)
[out] 0.0348

[in] Continue with AGGCUCAGAGCAGGAUAUAUGUGAUCACAUGAGGAUCACCCAUGUCUCGAGCUUCGGCUCGAGACAUAGAAGGGCUCUGAGCCA [SSNG2/3-B1] (Eterna round: R96, puzzle: Same State NG 2)
[out] 2.49

[in] What would you report for AUUAUUUAUGCAGGAUAUGAUUAACAUGAGGAUCACCCAUGUGGUGUUGUGAGUAAGGAGAGUGAUCAGAAGGGCAUUUUUUUG [JMF's solution 57] (Eterna round: R96, puzzle: Same State NG 2) ?
[out] 0.666

[in] Please do the same for ACAUGAGACUUAGGAUAUGUUGUACCUACAUGUGACAUGAGGAUCACCCAUGUGGUAAGUAUGAGGCAGAAGGGAGAGAUAUGU [Equivalence 47 - Jieux - Same State NG 2] (Eterna round: R96, puzzle: Same State NG 2) as well.
[out] 0.0543

[in] Request: GAAGGAUGAGCGUAGGAUAUAGGAGGAGUGACAUGAGGAUCACCCAUGUGGUAGGAGGGAGGGUACUAGAAGGACGAGGAAGAGG [JR_SS2_Sub069] (Eterna round: R96, puzzle: Same State 2)
[out] 0.102

[in] Moving on to the next sequence: UAAUUAAAGCAAGGAUAUCACGUCGUUUAGACGUGAGAAGGUGCUCCUUACAUGAGGAUCACCCAUGUAUAACAUGAAUAAUUA [SSNG1/10-B3] (Eterna round: R96, puzzle: Same State NG 1)
[out] 0.17

[in] How about this sequence: AUUUUAAAUGCAGGAUAUGAUUAACAUGAGGAUCACCCAUGUGGUGUUGUGAGUAAGGAGAGUGAUCAGAAGGGCAUUUUUUUU [JMF's solution 95] (Eterna round: R96, puzzle: Same State NG 2)
[out] 0.748

[in] What do you have for AGCUAUUAAUCAGGAUAUGGUGACAUGAGGAUCACCCAUGUAUUGAUGAUUAAAUGUGGUCACUACCAGAAGGGAUUACUAACA [SameState NG2 #50] (Eterna round: R96, puzzle: Same State NG 2) ?
[out] 0.0342

[in] Also check AGCUAGGUGGCAGGAUAUGGGCACACCUACAUGAGGAUCACCCAUGUCUAAAGGUUGCAAAAGGACCAGAAGGGCCACGCUAGC [Onzaislege] (Eterna round: R96, puzzle: Same State NG 2)
[out] 0.0192
